test protocol: In vivo pharmacokinetic study in dogs, oral dose of ARI-158
Design: species or system male beagle dogs
assay setup: male, beagle, dog, plasma, po, 10 mg/kg, dogs; 10 mg/kg oral dose of ARI-158; Mean
reported endpoint: AUC(0-t) (ng·h/mL)
Numbers only here, please. The scale is ng·h/mL.

Enquiry: Record request: AUC(0-t) value, item CCC(=O)c1csc(C(=O)c2cn(P(=O)([O-])[O-])c3cc(F)ccc23)n1.[Na+].[Na+]
Return: 787

* * *

test protocol: In vivo pharmacokinetic study in dogs, oral dose of ARI-158
Set-up: species or system male beagle dogs
assay setup: male, beagle, dog, plasma, po, 10 mg/kg, dogs; 10 mg/kg oral dose of ARI-158; time 6 h; Dog 11
Protocol: This example describes pharmacokinetic (PK) studies of ARI-158 and ARI-160 in dogs and rats, respectively. In the present studies, the test compounds were given to groups of male beagle dogs and rats (N=3 in each group) intravenously (IV) at 2 mg/kg or orally (PO) at 10 mg/kg. IV doses were formulated in DMSO, while PO doses were formulated in a 50/50 mixture of PEG400 and Tween 80. […] Plasma concentrations of the indolo-phosphoramidate compounds were determined by HPLC.
reported endpoint: concentration at 6 h (ng/mL)
Numbers only here, please. The scale is ng/mL.

Enquiry: For CCC(=O)c1csc(C(=O)c2cn(P(=O)([O-])[O-])c3cc(F)ccc23)n1.[Na+].[Na+] [ARI-158] , what is its reported concentration at 6 h?
Return: 1.47

* * *

test protocol: In vivo pharmacokinetic study in dogs, oral dose of ARI-158
Parameters: species or system male beagle dogs
assay setup: male, beagle, dog, plasma, po, 10 mg/kg, dogs; 10 mg/kg oral dose of ARI-158; Dog 11
reported endpoint: AUC(0-inf) (ng·h/mL)
Express the result in ng·h/mL but write the number alone.

Enquiry: Given CCC(=O)c1csc(C(=O)c2cn(P(=O)([O-])[O-])c3cc(F)ccc23)n1.[Na+].[Na+] , state its recorded AUC(0-inf).
Return: 677

* * *

test protocol: In vivo pharmacokinetic study in dogs, oral dose of ARI-158
Parameters: species or system male beagle dogs
assay setup: male, beagle, dog, plasma, po, 10 mg/kg, dogs; 10 mg/kg oral dose of ARI-158; time 2 h; Dog 11
reported endpoint: concentration at 2 h (ng/mL)
Unit ng/mL implied. Number only.

Enquiry: Using the record for CCC(=O)c1csc(C(=O)c2cn(P(=O)([O-])[O-])c3cc(F)ccc23)n1.[Na+].[Na+] [ARI-158] , report its concentration at 2 h.
Return: 102

* * *

test protocol: In vivo pharmacokinetic study in dogs, oral dose of ARI-158
Design: species or system male beagle dogs
assay setup: male, beagle, dog, plasma, po, 10 mg/kg, dogs; 10 mg/kg oral dose of ARI-158; time 0.5 h; Dog 10
reported endpoint: concentration at 0.5 h (ng/mL)
Express it in ng/mL; write the number only.

Enquiry: Which concentration at 0.5 h value belongs to CCC(=O)c1csc(C(=O)c2cn(P(=O)([O-])[O-])c3cc(F)ccc23)n1.[Na+].[Na+] [ARI-158] ?
Return: 786

* * *

test protocol: In vivo pharmacokinetic study in dogs, oral dose of ARI-158
Parameters: species or system male beagle dogs
assay setup: male, beagle, dog, plasma, po, 10 mg/kg, dogs; 10 mg/kg oral dose of ARI-158; time 0.25 h; Mean
reported endpoint: concentration at 0.25 h
Answer with the number, then the unit.

Enquiry: Find the recorded concentration at 0.25 h belonging to CCC(=O)c1csc(C(=O)c2cn(P(=O)([O-])[O-])c3cc(F)ccc23)n1.[Na+].[Na+] and report it.
Return: 313 ng/mL
